B1: AUP1 (parent)
chain: FCASTRLPPTPLLLFPEEEATNGR

# Variants of: B1
# Test Description: protein stability index of a GFP-peptide fusion (GPS, HEK-293T) (PSI 1-6); higher = more stable;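 also: lentivirally expressed fusions sorted by FACS into six bins by GFP to DsRed ratio, PSI derived from sequencing read proportions per bin multiplied by bin number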
# Condition Info: c terminus: a fixed tail appended
Endpoint Label: protein stability index
Respond using a number only.

Reference set, count: 10
> print(dat)
                         seq.string  meas.value
 1  FCASTRLPPTPLLLFPEEEATTGR [N22T]        3.27
 2   FCAVTRLPPTPLLLFPEEEATNGR [S4V]        3.08
 3   FCASWRLPPTPLLLFPEEEATNGR [T5W]        2.49
 4   FCASIRLPPTPLLLFPEEEATNGR [T5I]        2.22
 5   VCASTRLPPTPLLLFPEEEATNGR [F1V]        4.27
 6   FCASQRLPPTPLLLFPEEEATNGR [T5Q]        2.86
 7  FCASTRLPPTPLLLFPEEEAHNGR [T21H]        2.69
 8  FCASTRLPPTPLLLKPEEEATNGR [F15K]        3.11
 9  FCASTRLPPTPLELFPEEEATNGR [L13E]        3.86
10  FCASTRLPPTPLLLFPREEATNGR [E17R]        1.96

Specify measured protein stability index for FCADTRLPPTPLLLFPEEEATNGR [S4D] .
3.6

Specify measured protein stability index for FCASTRLPPTPLLLFPEEEATNGN [R24N] .
3.01

Specify measured protein stability index for FCASTRLPPTPLLQFPEEEATNGR [L14Q] .
3.88

Specify measured protein stability index for FCASTRLPPTPLLLFPMEEATNGR [E17M] .
2.51

Specify measured protein stability index for FCASTRLPPTPLLLFPEEEAANGR [T21A] .
2.6

Specify measured protein stability index for FCASTRLPTTPLLLFPEEEATNGR [P9T] .
2.46
